- system-name: human TLR9 (Homo sapiens, UniProt Q9NR96)
- Sequence (Q9NR96 26-1032): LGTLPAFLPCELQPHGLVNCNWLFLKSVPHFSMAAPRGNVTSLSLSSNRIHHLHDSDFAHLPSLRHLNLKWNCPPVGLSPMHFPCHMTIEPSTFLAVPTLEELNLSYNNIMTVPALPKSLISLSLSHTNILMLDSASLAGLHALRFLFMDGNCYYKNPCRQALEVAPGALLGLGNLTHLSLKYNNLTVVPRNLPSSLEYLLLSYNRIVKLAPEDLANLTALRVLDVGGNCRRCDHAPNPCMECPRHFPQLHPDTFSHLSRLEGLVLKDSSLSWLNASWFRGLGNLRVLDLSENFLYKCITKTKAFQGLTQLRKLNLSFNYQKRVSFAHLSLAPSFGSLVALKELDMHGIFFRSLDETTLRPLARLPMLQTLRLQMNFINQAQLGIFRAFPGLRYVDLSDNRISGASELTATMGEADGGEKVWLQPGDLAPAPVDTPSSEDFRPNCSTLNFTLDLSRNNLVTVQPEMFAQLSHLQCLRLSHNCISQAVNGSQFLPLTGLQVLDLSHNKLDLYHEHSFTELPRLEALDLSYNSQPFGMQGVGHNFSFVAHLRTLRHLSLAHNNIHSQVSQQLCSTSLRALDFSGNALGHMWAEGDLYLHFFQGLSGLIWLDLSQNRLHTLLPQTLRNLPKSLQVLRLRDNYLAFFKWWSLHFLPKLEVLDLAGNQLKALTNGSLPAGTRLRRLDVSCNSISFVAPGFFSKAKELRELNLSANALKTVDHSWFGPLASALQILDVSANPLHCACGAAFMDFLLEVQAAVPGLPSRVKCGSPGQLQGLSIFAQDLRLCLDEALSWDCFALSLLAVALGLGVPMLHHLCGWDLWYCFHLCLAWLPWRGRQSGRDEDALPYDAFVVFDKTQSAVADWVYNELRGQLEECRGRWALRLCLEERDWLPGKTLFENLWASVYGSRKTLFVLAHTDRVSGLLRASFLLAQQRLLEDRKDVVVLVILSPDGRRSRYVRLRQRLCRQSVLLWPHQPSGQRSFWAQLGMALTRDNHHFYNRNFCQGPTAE
- protocol-text: TLR9 inhibition reporter assay (HEK-Blue cells, SEAP reporter, ODN2006 stimulation)
- experimental-setup: HEK-Blue cells overexpressing human TLR9, ODN2006 5 nM
quantity-measured: IC50 (nM)

Before answering, review these 3 worked examples.
compound: COc1ccc(-c2[nH]c3ccc(C4CCN(C(=O)CN5CCC[C@H](C(=O)N6CC7CNCC7C6)C5)CC4)cc3c2C(C)C)cc1OC (stereo partly shown) [Example 299]
value-units: nM
experimental-result: 6990

compound: CNCCN1CCC(c2ccc3[nH]c(-c4ccc(OC)c(OC)c4)c(C(C)C)c3c2)CC1 [Example 196]
value-units: nM
experimental-result: 521

compound: COc1ccc(-c2[nH]c3ccc(C4CCN(C5CCN(C)CC5)CC4)cc3c2C)cc1OC [Example 11]
value-units: nM
experimental-result: 216

P = COc1ccc(-c2[nH]c3ccc(C4CCN(C5CCN(C6COC6)CC5)CC4)cc3c2C)cc1OC [Example 83]
Q = COc1ccc(-c2[nH]c3ccc(C4CCN(CC(=O)NCCNC(C)=O)CC4)cc3c2CC(F)(F)F)cc1OC [Example 379]
R = COc1ccc(-c2[nH]c3ccc(C4CCN(C5CCN(CC6CC6)CC5)CC4)cc3c2C)cc1OC [Example 3]
S = COc1ccc(-c2[nH]c3ccc(C4CCN(C5CCN(CCC(C)O)CC5)CC4)cc3c2C)cc1OC (stereo not shown) [Example 56]
Ask: Endpoint returns the given compounds ordered by ascending IC50. Please express your ranking as an ordered list of the labels.
Result: R, S, P, Q
